Listed here are molecules together with their documented IC50.
# assay-target: Group 10 secretory phospholipase A2 (Homo sapiens, UniProt O15496)
# Sequence (O15496 whole entry): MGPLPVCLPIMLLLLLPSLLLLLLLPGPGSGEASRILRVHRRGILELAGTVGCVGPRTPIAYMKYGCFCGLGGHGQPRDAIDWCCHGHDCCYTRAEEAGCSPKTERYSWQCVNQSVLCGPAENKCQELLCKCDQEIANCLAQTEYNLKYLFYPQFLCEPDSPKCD
# assay-comment: Inhibition of human group X PLA2 in [3H]oleate-labeled Escherichia coli membrane by radiometric assay
Give a bare numeral; the unit µM is implied.

Sample CCCCCCCCCCCCCCOC(COCc1ccccc1)COc1ccc(-c2noc(=O)[nH]2)cc1 (racemic) — what was its IC50? 14

* * *

# assay-target: Phospholipase A2, major isoenzyme (Sus scrofa, UniProt P00592)
# Sequence (P00592 whole entry): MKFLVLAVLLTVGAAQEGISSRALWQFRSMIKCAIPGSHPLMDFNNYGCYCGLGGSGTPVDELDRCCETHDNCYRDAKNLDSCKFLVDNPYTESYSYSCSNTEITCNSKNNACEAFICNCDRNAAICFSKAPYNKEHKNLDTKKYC
pIC50: −log10 of the molar value.
# cutoff 5 applies to pIC50; >= gives Yes, < gives No

Here are 5 molecules together with their reported answers.
{"molecule": "CCCCCCCCCCCCCCOC(COCCCCC)COc1ccc(-c2noc(=O)[nH]2)cc1 (racemic)", "answer-label": "No"}
{"molecule": "CCCCCCCCCCCCCCOC(COc1ccc(-c2noc(=O)[nH]2)cc1)COC(c1ccccc1)c1ccccc1 (racemic)", "answer-label": "Yes"}
{"molecule": "CCCCCCCCCCCCCCOC(COc1ccc(Cc2nc(=O)o[nH]2)cc1)COc1ccc(Cc2nc(=O)o[nH]2)cc1", "answer-label": "No"}
{"molecule": "CCCCCCCCCCCCCCCCCCOC(COCc1ccc(C#N)cc1)COc1ccc(Cc2noc(=O)[nH]2)cc1 (racemic)", "answer-label": "No"}
{"molecule": "CCCCCCCCCCCCCCOC(COCCCCc1ccccc1)COc1ccc(-c2noc(=O)[nH]2)cc1 (racemic)", "answer-label": "Yes"}

API: above_or_equal(metric=pIC50, cutoff=5) for item CCCCCCCCCCCCCCOCC(COc1ccc(Cc2nc(=O)o[nH]2)cc1)Oc1ccc(Cc2nc(=O)o[nH]2)cc1 (racemic) No

Can `CCCCCCCCCCCCCCO[C@@H](COc1ccc(-c2nc(=O)o[nH]2)cc1)COC(c1ccccc1)(c1ccccc1)c1ccccc1` be said to have pIC50 at or above 5? No

Does the reported pIC50 for `CCCCCOC(COc1ccc(Cc2noc(=O)[nH]2)cc1)COc1ccc(Cc2noc(=O)[nH]2)cc1` fall at or above the 5 mark? No

* * *

Quick record: IC50, Phospholipase A2 (Homo sapiens, UniProt P04054).
Kindly provide the numeric value in µM only, without the unit symbol.

Observed IC50 on Phospholipase A2 (Homo sapiens, UniProt P04054) for CCCCCCCCCCCCCCOC(COc1ccc(-c2noc(=O)[nH]2)cc1)COC(c1ccccc1)(c1ccccc1)c1ccccc1 (racemic) , please. 5.75

API: value(readout= IC50, system= Phospholipase A2 (Homo sapiens, UniProt P04054), query= `Cc1c(C(=O)C(N)=O)c2c(OCC(=O)O)cccc2n1Cc1ccccc1-c1ccccc1` ) 3.3

API: value(readout=IC50, system=Phospholipase A2 (Homo sapiens, UniProt P04054)) for record CCCCCCCCCCCCCCOC(COCCCCCCCCCC)COc1ccc(-c2nc(=O)o[nH]2)cc1 (stereo not drawn) 10

* * *

# assay-target: Phospholipase A2, membrane associated (Homo sapiens, UniProt P14555)
# assay-comment: Inhibition of human group IIA PLA2 by fluorimetric assay
pIC50: −log10 of the molar value.
pIC50 below 5 gives class 0; pIC50 at or above it gives class 1.

Some solved cases for reference:
{"compound": "O=c1nc(-c2ccc(OCC(COCCCCc3ccccc3)OCCCCc3ccccc3)cc2)[nH]o1 (racemic)", "answer-label": "class 0"}
{"compound": "CCCCCCCCCCCCCCOC(COCc1ccccc1)COc1ccc(-c2noc(=O)[nH]2)cc1 (racemic)", "answer-label": "class 0"}
{"compound": "CCCCCCCCCOCC(COc1ccc(Cc2noc(=O)[nH]2)cc1)OCCCCCCCCC (racemic)", "answer-label": "class 1"}
{"compound": "CCCCCCCCCCCCCCOC(COCC)COc1ccc(-c2noc(=O)[nH]2)cc1 (racemic)", "answer-label": "class 0"}
{"compound": "CCCCCCCCCCCCCCCCCCOC(COCc1ccc(C#N)cc1)COc1ccc(Cc2noc(=O)[nH]2)cc1 (racemic)", "answer-label": "class 1"}

For the next question, use this compound.
Check this compound for pIC50 at or above 5: CCCCCCCCCCCCCCOC(CO)COc1ccc(-c2noc(=O)[nH]2)cc1 (racemic) class 0

* * *

# assay-target: Phospholipase A2, membrane associated (Homo sapiens, UniProt P14555)
# assay-comment: Inhibition of human group IIA PLA2 by fluorimetric assay
quantity: IC50 (nM)
// return numeric value only (unit: nM, not printed)

Sample records with IC50:
{"molecule": "CCCCCCCCCCCCCCO[C@@H](COc1ccc(-c2nc(=O)o[nH]2)cc1)COC(c1ccccc1)(c1ccccc1)c1ccccc1", "units-symbol": "nM", "IC50": 330}
{"molecule": "CCCCCCCCCCCCCCOC(COCc1cccc(OC)c1)COc1ccc(-c2nc(=O)o[nH]2)cc1 (racemic)", "units-symbol": "nM", "IC50": 2200}
{"molecule": "CCCCCCCCCCCCCCOCC(COc1ccc(-c2noc(=O)[nH]2)cc1)Oc1ccc(-c2noc(=O)[nH]2)cc1 (racemic)", "units-symbol": "nM", "IC50": 21000}

Please provide the recorded IC50 for `CCCCCCCCCCCCCCOC(COc1ccc(Cc2nc(=O)o[nH]2)cc1)COc1ccc(Cc2nc(=O)o[nH]2)cc1` , tested on Phospholipase A2, membrane associated (Homo sapiens, UniProt P14555). 2100

Provide the documented IC50 with Phospholipase A2, membrane associated (Homo sapiens, UniProt P14555) as the system for `CCCCCCCCCCCCCCOC(COc1ccc(-c2nc(=O)o[nH]2)cc1)COc1ccc(-c2nc(=O)o[nH]2)cc1` 47700

Param readout = IC50; param system = Phospholipase A2, membrane associated (Homo sapiens, UniProt P14555); param query = `CCCCCCCCCCCCCCOc1ccc(Cc2noc(=O)[nH]2)cc1` ; response: value 4000

What measured IC50 is associated with CCCCCCCCCCCCCCOC(COCc1ccc(C#N)cc1)COc1ccc(Cc2nc(=O)o[nH]2)cc1 (racemic) on Phospholipase A2, membrane associated (Homo sapiens, UniProt P14555)? 1100

Entry CCCCCCCCCCCCCCOC(COc1ccc(-c2noc(=O)[nH]2)cc1)COC(c1ccccc1)c1ccccc1 (racemic) , system Phospholipase A2, membrane associated (Homo sapiens, UniProt P14555): what IC50 was measured? 280

* * *

# assay-comment: Lipophilicity, log P of the compound
# Format: physicochemical
# particulars: octanol/water; read-out: LogP
quantity: logP

{"molecule": "CCCCCCCOCC(COc1ccc(Cc2noc(=O)[nH]2)cc1)OCCCCCCC (racemic)", "quantity": "logP", "recorded-result": 7.12}

// lookup logP for `CCCCCCCCCCCCCCOC(COc1ccc(Cc2nc(=O)o[nH]2)cc1)COc1ccc(Cc2nc(=O)o[nH]2)cc1` 7.64

* * *

# assay-target: Phospholipase A2, membrane associated (Homo sapiens, UniProt P14555)
# Sequence (P14555 whole entry): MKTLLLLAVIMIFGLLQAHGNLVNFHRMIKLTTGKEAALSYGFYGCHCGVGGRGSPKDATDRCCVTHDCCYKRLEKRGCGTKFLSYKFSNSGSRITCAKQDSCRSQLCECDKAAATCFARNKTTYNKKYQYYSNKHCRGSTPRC
# assay-comment: Inhibition of human group IIA PLA2 by fluorimetric assay
quantity: IC50 (µM)
State the answer as a number, implicitly in µM.

Please review the following examples before continuing.
{"molecule": "CCCCCCCOCC(COc1ccc(Cc2noc(=O)[nH]2)cc1)OCCCCCCC (racemic)", "assay-target": "Phospholipase A2, membrane associated (Homo sapiens, UniProt P14555)", "IC50 [µM]": 11.6}
{"molecule": "CCCCCOC(COc1ccc(Cc2noc(=O)[nH]2)cc1)COc1ccc(Cc2noc(=O)[nH]2)cc1", "assay-target": "Phospholipase A2, membrane associated (Homo sapiens, UniProt P14555)", "IC50 [µM]": 30.5}
{"molecule": "CCCCCCCCCCCCCCOC(COCCCCC)COc1ccc(-c2noc(=O)[nH]2)cc1 (racemic)", "assay-target": "Phospholipase A2, membrane associated (Homo sapiens, UniProt P14555)", "IC50 [µM]": 8.3}
{"molecule": "CCCCCCCCCCCCCCOC(COc1ccc(-c2noc(=O)[nH]2)cc1)COC(c1ccccc1)(c1ccccc1)c1ccccc1 (racemic)", "assay-target": "Phospholipase A2, membrane associated (Homo sapiens, UniProt P14555)", "IC50 [µM]": 0.9}
{"molecule": "CCCCCCCCCCCCCCOCC(COc1ccc(Cc2nc(=O)o[nH]2)cc1)Oc1ccc(Cc2nc(=O)o[nH]2)cc1 (racemic)", "assay-target": "Phospholipase A2, membrane associated (Homo sapiens, UniProt P14555)", "IC50 [µM]": 3.1}
{"molecule": "CCCCCCCCCCCCCCOC(COCCCCc1ccccc1)COc1ccc(-c2noc(=O)[nH]2)cc1 (racemic)", "assay-target": "Phospholipase A2, membrane associated (Homo sapiens, UniProt P14555)", "IC50 [µM]": 0.29}
{"molecule": "CCCCCCCOCC(COc1ccc(-c2noc(=O)[nH]2)cc1)OCCCCCCC (racemic)", "assay-target": "Phospholipase A2, membrane associated (Homo sapiens, UniProt P14555)", "IC50 [µM]": 50.9}

--- query ---
Phospholipase A2, membrane associated (Homo sapiens, UniProt P14555) / IC50 / CCCCCCCCCCCCCCOC(COCCCCCCCCCC)COc1ccc(-c2nc(=O)o[nH]2)cc1 (stereo not drawn) : value? 0.28

// data source = ChEMBL document CHEMBL1142970
